- experimental system: androgen receptor (AR) (Homo sapiens)
- Construct: transfecting C2C12 cells with a plasmid containing full-length AR along with an AR response element linked to luciferase; expressed in transfected cells; host or cells: mouse myoblastic C2C12 cells (ATCC CRL-1772), transient transfection with Lipofectamine 2000
- Sequence (P10275 1-920): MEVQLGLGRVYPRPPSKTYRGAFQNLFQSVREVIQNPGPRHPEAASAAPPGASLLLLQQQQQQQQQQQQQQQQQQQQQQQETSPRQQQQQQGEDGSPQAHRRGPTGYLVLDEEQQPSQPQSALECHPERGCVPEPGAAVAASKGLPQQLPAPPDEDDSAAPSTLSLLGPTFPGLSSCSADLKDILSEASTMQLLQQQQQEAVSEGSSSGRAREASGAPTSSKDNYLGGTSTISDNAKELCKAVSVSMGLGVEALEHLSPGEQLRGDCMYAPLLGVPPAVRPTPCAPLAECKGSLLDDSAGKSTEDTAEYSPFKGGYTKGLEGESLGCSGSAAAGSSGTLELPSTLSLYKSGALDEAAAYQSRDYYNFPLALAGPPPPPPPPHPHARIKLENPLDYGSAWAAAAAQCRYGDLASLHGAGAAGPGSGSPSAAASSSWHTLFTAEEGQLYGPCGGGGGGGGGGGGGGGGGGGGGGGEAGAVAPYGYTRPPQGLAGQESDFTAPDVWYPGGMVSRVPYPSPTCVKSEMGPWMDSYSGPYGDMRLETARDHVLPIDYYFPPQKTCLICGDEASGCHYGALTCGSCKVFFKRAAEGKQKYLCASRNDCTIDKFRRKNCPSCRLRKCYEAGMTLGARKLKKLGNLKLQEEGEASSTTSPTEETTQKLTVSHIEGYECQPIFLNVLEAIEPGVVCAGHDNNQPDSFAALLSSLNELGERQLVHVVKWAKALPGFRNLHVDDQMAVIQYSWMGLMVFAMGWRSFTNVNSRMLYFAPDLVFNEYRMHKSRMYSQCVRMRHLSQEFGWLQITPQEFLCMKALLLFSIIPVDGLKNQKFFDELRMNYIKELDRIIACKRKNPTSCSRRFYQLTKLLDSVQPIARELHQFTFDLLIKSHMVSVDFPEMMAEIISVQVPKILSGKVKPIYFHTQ
- procedure details: AR transcriptional activation luciferase reporter assay in C2C12 cells (Test 1)
- Format: cell-based
measured attribute: EC50 (nM)
Provide only the numeric value, understood in nM.

{"molecule": "Cc1c(C2=NN3CC[C@@H](F)[C@H]3[C@@H]2OCCF)ccc(C#N)c1Cl [Example 23]", "reading unit": "nM", "EC50": 0.41}
{"molecule": "CO[C@@H]1C(c2ccc(C#N)c(Cl)c2C)=NN2CC[C@@H](F)[C@@H]12 [Example 12]", "reading unit": "nM", "EC50": 0.1}
{"molecule": "Cc1c(C2=NN3CC[C@H](O)[C@H]3[C@@H]2OCCF)ccc(C#N)c1Cl [Example 16]", "reading unit": "nM", "EC50": 2}

Then there is this molecule:
Data request: Checklist item: EC50 tested on androgen receptor (AR) (Homo sapiens), entry COCCO[C@@H]1C(c2ccc(C#N)c(Cl)c2C)=NN2CC(F)(F)C[C@@H]12 [Example 24] , value?
Data returned: 5.6

====

Attribute: % Biological activity (C2C12 cell) 100 nM
- experimental system: androgen receptor (AR) (Homo sapiens)
- Construct: transfecting C2C12 cells with a plasmid containing full-length AR along with an AR response element linked to luciferase; expressed in transfected cells; host or cells: mouse myoblastic C2C12 cells (ATCC CRL-1772), transient transfection with Lipofectamine 2000
- procedure details: AR transcriptional activation luciferase reporter assay in C2C12 cells (Test 1)
- Assay type: cell-based
- experimental setup: 100 nM compound; activity relative to 1 μM DHT
Answer with a number only, understood to be in %.

{"molecule": "Cc1c(C2=NN3CC[C@@H](O)[C@H]3[C@@H]2O)ccc(C#N)c1Cl", "reported result": 5}
{"molecule": "CO[C@@H]1C(c2ccc(C#N)c(Cl)c2C)=NN2CC(O)(C(F)(F)F)C[C@@H]12 (stereo partly shown)", "reported result": 24}
{"molecule": "Cc1c(C2=NN3C[C@H](O)C[C@H]3[C@@H]2O)ccc(C#N)c1Cl", "reported result": 4}

Data request: What value of measured % Biological activity (C2C12 cell) 100 nM is listed for Cc1c(C2=NN3CC[C@H](O)[C@H]3[C@@H]2OCC2CC2)ccc(C#N)c1Cl ?
Data returned: 91
